Molecular target: T1, human CTLA-4 (CTLA4), expressed on CHO cells (human, UniProt P16410 36-223)
T1 construct: Full-length surface expression construct transduced by lentivirus into CHO cells; also called huCTLA4
T1 sequence (P16410 36-223): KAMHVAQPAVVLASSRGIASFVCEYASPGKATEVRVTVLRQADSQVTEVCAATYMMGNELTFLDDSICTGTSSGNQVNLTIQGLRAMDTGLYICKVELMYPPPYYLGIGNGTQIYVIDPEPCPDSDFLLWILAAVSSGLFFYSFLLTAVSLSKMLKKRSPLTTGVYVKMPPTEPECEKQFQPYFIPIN
Assay: flow cytometry on CHO cells stably expressing human CTLA-4; PE anti-human Fc

# BINDER, MFI at 33.3 nM
measured = [
    ("variant CD80 IgV-Fc E35D/M43I/M47V/K89N (Fc fusion, not shown: small tags and cut ends; a dimerising Fc or GST, Fc fusion of the variant IgV) VIHVTKEVKEVATLSCGHNVSVEELAQTRIYWQKDKKMVLTMISGDVNIWPEYKNRTIFDITNNLSIVILALRPSDEGTYECVVLKYENDAFKREHLAEVTLSVKAD", "278000 MFI"),
    ("variant CD80 IgV-Fc E35D/D46E/M47V/V68M/D90G/K93E (Fc fusion, not shown: small tags and cut ends; a dimerising Fc or GST, Fc fusion of the variant IgV) VIHVTKEVKEVATLSCGHNVSVEELAQTRIYWQKDKKMVLTMMSGEVNIWPEYKNRTIFDITNNLSIMILALRPSDEGTYECVVLKYEKGAFEREHLAEVTLSVKAD", "273000 MFI"),
    ("variant CD80 IgV-Fc E35D/M47V/T62A/A71D/K93E (Fc fusion, not shown: small tags and cut ends; a dimerising Fc or GST, Fc fusion of the variant IgV) VIHVTKEVKEVATLSCGHNVSVEELAQTRIYWQKDKKMVLTMMSGDVNIWPEYKNRTIFDIANNLSIVILDLRPSDEGTYECVVLKYEKDAFEREHLAEVTLSVKAD", "226000 MFI"),
    ("variant CD80 IgV-Fc Q33R/E35D/M47V/N48K/L85M/F92L (Fc fusion, not shown: small tags and cut ends; a dimerising Fc or GST, Fc fusion of the variant IgV) VIHVTKEVKEVATLSCGHNVSVEELAQTRIYWRKDKKMVLTMMSGDVKIWPEYKNRTIFDITNNLSIVILALRPSDEGTYECVVMKYEKDALKREHLAEVTLSVKAD", "2680 MFI"),
]
